Molecular target: CSF1R (FMS) (Homo sapiens)
Sequence (P07333 20-972): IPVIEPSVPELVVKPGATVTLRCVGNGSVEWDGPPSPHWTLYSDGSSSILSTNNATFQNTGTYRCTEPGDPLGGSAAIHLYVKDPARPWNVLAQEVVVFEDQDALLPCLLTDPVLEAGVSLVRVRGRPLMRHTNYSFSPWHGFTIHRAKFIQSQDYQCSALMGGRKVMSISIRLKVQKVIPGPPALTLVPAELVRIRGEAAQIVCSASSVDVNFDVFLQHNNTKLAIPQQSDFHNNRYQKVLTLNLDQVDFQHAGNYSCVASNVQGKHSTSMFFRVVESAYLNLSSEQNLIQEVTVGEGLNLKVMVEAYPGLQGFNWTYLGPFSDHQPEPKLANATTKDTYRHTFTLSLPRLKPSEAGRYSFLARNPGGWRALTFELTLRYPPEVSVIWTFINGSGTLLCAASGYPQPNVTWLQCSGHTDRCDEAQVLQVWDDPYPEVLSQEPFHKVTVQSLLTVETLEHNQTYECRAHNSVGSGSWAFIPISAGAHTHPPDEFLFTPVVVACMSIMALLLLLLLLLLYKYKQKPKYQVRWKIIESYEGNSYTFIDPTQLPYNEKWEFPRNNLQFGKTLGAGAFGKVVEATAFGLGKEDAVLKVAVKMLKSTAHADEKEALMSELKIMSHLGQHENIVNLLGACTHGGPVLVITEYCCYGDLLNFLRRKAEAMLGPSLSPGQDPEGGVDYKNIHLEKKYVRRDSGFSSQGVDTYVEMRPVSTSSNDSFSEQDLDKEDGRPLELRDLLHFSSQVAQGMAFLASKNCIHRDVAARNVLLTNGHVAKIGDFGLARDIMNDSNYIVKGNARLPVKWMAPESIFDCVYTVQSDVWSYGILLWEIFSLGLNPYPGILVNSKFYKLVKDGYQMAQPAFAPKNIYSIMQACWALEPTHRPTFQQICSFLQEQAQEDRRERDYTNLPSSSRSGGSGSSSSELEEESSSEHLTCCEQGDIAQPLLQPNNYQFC
Assay: Z'-LYTE SelectScreen biochemical kinase assay CSF1R (FMS)
Conditions: read-out: % Inhibition mean CSF1R (FMS)
Excerpt: Thermo Fisher Scientific SelectScreen™ Biochemical Kinase Profiling Service Z′-LYTE™ Screening Protocol and Assay Conditions Assay Theory The […] biochemical assay employs a fluorescence-based, coupled-enzyme format and is based on the differential sensitivity of phosphorylated and non-phosphorylated peptides to proteolytic cleavage. […] Both cleaved and uncleaved FRET-peptides contribute to the fluorescence signals and therefore to the Emission Ratio. […]
So basically: inhibition at 10 µM at 20% or higher? That is yes (1). Lower than 20%? That is no (0).

>  <Compound>
CCCCCn1ncc2c1CCC(Nc1nc3c(-c4ccc(F)cc4C)cccn3n1)C2 (centres unmarked)

>  <Category Label>
no (0)

$$$$
>  <Compound>
CCn1ncc2c1CCC(Nc1nc3c(-c4cccnc4)cccn3n1)C2 (centres unmarked)

>  <Category Label>
yes (1)

$$$$
>  <Compound>
CCc1nn(C)c2c1CCC(Nc1nc3c(-c4ccc(F)cc4C)cccn3n1)C2 (centres unmarked)

>  <Category Label>
yes (1)

$$$$
>  <Compound>
CCCCn1ncc2c1CCC(Nc1nc3c(-c4ccc(F)cc4C)cccn3n1)C2 (centres unmarked)

>  <Category Label>
yes (1)

$$$$

Is inhibition at 10 µM at least 20%? Consider CCn1ncc2c1CCC(Nc1nc3c(-c4cccnc4OC)cccn3n1)C2 (centres unmarked)
no (0)
